Assignment: determine reported half-life for the given compounds.
- experiment: Pharmacokinetic study in mice
- Format: in vivo
- run conditions: female, BALB/c (BALB/cAnN CrlCrlj), mouse, plasma, intravenous, 1 mg/kg
- Method: The test compound was administered to 7-week-old female BALB/c (BALB/cAnN CrlCrlj) mice intravenously (dosage: 1 mg/kg) in a 50% PEG solution (0.01 mol/L HCl) or orally (dosage: 10 mg/kg) in a 0.5% methylcellulose aqueous solution, and blood was collected at the following times: […] The collected blood was centrifuged at 3000 rpm×10 min using a refrigerated centrifuge set at 4° C., and the obtained plasma was measured by LC-MS. […]
Response body: numeric value in h, unit text excluded.

Recorded half-life of CN1CC(N(Cc2ccc(F)cc2)C(=O)CN2C(=O)N[C@]3(C[C@@H](F)c4cc(-c5cnn(C)c5)ccc43)C2=O)(C(F)(F)F)C1 , please.
1.16

Field request: half-life | item: O=C1N[C@]2(C[C@@H](F)c3cc(-c4cnn(C5CN(C6COC6)C5)c4)ccc32)C(=O)N1CC(=O)N(Cc1ccc(F)cn1)C1(C(F)(F)F)CC(F)(F)C1
2.43

I would be grateful if you could share the reported half-life for CN1CC(N(Cc2ccc(F)cn2)C(=O)CN2C(=O)N[C@]3(C[C@@H](F)c4cc(-c5cnn(C)c5)ccc43)C2=O)(C(F)(F)F)C1 .
1.34

Given O=C1N[C@]2(C[C@@H](F)c3cc(-c4cnn(C5CN(C6COC6)C5)c4)ccc32)C(=O)N1CC(=O)N(Cc1ccc(F)cc1)C1(C(F)(F)F)COC1 , state its recorded half-life.
1.8

###

I'd appreciate it if you could supply Papp at 4 h values for the items below.
- experiment: Membrane permeability test (PAMPA)
- Type: in vitro ADME
- run conditions: pH 7.4, 37° C., read-out: pH 7.4 Pe
- Description: The membrane permeability of the test compound was tested by parallel artificial membrane permeability assay (PAMPA) as follows. […] Both plates were overlapped and incubated at 37° C. for 4 hours, after which the UV of the solutions on the acceptor side and donor side was measured using a UV plate reader (190-500 nm). Compounds with poor UV absorption were measured using LC-MS. The permeability coefficient Pe (10^−6 cm/sec) of the drug was calculated using the following equation.
The answer is to be given in ×10⁻⁶ cm/s; state only the numeric part.

Entry under review: CN1CC(N(Cc2ccc(F)cc2)C(=O)CN2C(=O)N[C@]3(C[C@@H](F)c4cc(-c5cnn(C)c5)c(F)cc43)C2=O)(C(F)(F)F)C1 . Reported Papp at 4 h?
28.3

Which Papp at 4 h reading was recorded for the molecule CN1CC(N(Cc2ccc(F)cc2)C(=O)CN2C(=O)N[C@]3(C[C@@H](F)c4cc(-c5cnn(C(C)(C)C#N)c5)ccc43)C2=O)(C(F)(F)F)C1 ?
27.2

Form field: reported Papp at 4 h of CN1CC(N(Cc2ccc(F)cc2)C(=O)CN2C(=O)N[C@]3(CCc4cc(-c5cnn(C)c5F)ccc43)C2=O)(C(F)(F)F)C1
32

Returns the measured Papp at 4 h for the input molecule. Input: CN1CC(N(Cc2ccc(F)cc2)C(=O)CN2C(=O)N[C@]3(C[C@@H](F)c4cc(-c5cnn(C)c5F)ccc43)C2=O)(C(F)(F)F)C1
33.3

For CC(C)n1cc(-c2ccc3c(c2)[C@H](F)C[C@]32NC(=O)N(CC(=O)N(Cc3ccc(F)cc3)C3(C(F)(F)F)CN(C)C3)C2=O)cn1 , what is its reported Papp at 4 h?
34.9
